Biological target: Alpha-bungarotoxin (Bungarus multicinctus) (UniProt P60615)
Sequence (P60615 whole entry, looked up): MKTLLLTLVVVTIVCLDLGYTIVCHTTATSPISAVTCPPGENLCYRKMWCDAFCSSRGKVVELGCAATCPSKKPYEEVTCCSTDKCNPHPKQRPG
Assay: compounds binding labelled alpha-BTX control protein – biochemical, small-molecule microarray, Alexa647 label, 635/667 nm fluorescence, artefact control for SMM control protein annotation, profiling panel (AID 1117)
Details: alpha-BTX-A647 binding fluorescence, higher = more signal
We use 0.5 as the dividing line for composite z-score: on or above the line is True, below is False.

{"molecule": "CCCC=C(CCC)[C@@H](NC(=O)Cc1ccccc1)c1ccc(C(=O)OC)cc1", "assigned.class": "True"}
{"molecule": "NC(=O)[C@H]1[C@@H]2C(=O)O[C@@H](c3ccccc3)[C@@H](c3ccccc3)N2[C@@H](c2ccc(O)cc2)[C@]12C(=O)Nc1ccc(C#CC3(O)CCCCCC3)cc12", "assigned.class": "True"}
{"molecule": "N#Cc1ccc(NN2C(C(O)c3ccco3)C=CC3C(=O)N(c4ccccc4)C(=O)C32)cc1 (centres undefined)", "assigned.class": "True"}
{"molecule": "COCC(=C=CC[C@@H](O)c1ccccc1OCCO)C[C@@H](O)c1ccccn1", "assigned.class": "False"}
{"molecule": "CCCN1C(=O)[C@@]2(Cc3ccccc3)N=C(c3ccc(OCCCO)cc3)O[C@H]2c2ccccc21", "assigned.class": "True"}
{"molecule": "COc1cc2c(cc1OC)CN(C(=O)[C@@H]1[C@H]3C(=O)O[C@H](c4ccccc4)[C@H](c4ccccc4)N3[C@H](c3ccc(O)cc3)[C@@]13C(=O)Nc1ccc(C#CCNC(N)=O)cc13)CC2", "assigned.class": "False"}
{"molecule": "[N-]=[N+]=Nc1ccccc1[C@@H]1OC(c2ccc(OCCCO)cc2)=N[C@]1(CCS(=O)(=O)c1ccccc1)C(=O)NCc1ccccc1", "assigned.class": "True"}
{"molecule": "CN(C)CCCC[C@@H]1NC(=O)[C@H]2C[C@@H](C(=O)NCCCCCCNC(=O)CS)[C@@H](c3ccc(O)cc3)N2C1=O", "assigned.class": "False"}
{"molecule": "O=C1O[C@H](c2ccccc2)[C@H](c2ccccc2)N2[C@H]1[C@@H](C(=O)NC[C@H](O)c1ccccc1)[C@]1(C(=O)Nc3ccccc31)[C@H]2c1ccccc1OCCO", "assigned.class": "True"}
{"molecule": "Cc1ccc(S[C@]2(C(=O)O)CC(=O)N(C3CCCCC3)[C@@H]2c2ccc(CO)cc2)cc1", "assigned.class": "True"}
{"molecule": "COC(=O)[C@@]1(Cc2ccc(OC)cc2)[C@H]2c3cc(C(=O)N4CCCC4)n(CCF)c3C[C@H]2CN1C(=O)c1ccccc1", "assigned.class": "True"}
{"molecule": "COC(=O)c1ccc(OC)c(/C=C\\CC(CCc2ccccc2)OC(C)=O)c1 (centres undefined)", "assigned.class": "True"}
{"molecule": "CCCCC(=C=CC[C@H](O)c1ccccc1OCCO)C[C@H](O)c1ccccn1", "assigned.class": "True"}
{"molecule": "O=C(O)[C@@]1(Cc2ccccc2)COC(c2ccc(OCCCO)cc2)=N1", "assigned.class": "False"}
{"molecule": "Cc1ccc(N2C(=O)c3ccccc3[C@](C)(C(=O)NC(C)C)[C@@H]2c2ccc(CO)cc2)nc1", "assigned.class": "False"}
{"molecule": "CC(C)C(CO)N1C(=O)[C@@H]2[C@H]3C(=O)OCC=C[C@H]3OC23C=CCN(Cn2nnc4ccccc42)C(=O)[C@@H]13 (some centres undefined)", "assigned.class": "False"}
{"molecule": "COc1ccc(C(=O)Nc2ccc3c(c2)[C@]2(O[C@@H](CCO)[C@H]([Si](C)(C)c4ccc(OC)cc4)[C@H]2C)C(=O)N3Cc2ccccc2)cc1", "assigned.class": "False"}
{"molecule": "COCCCNC(=O)[C@]1(Cc2ccccc2CN=[N+]=[N-])N=C(c2ccc(OCCCO)cc2)O[C@@H]1c1ccccc1CN=[N+]=[N-]", "assigned.class": "True"}
{"molecule": "C=C(C)[C@@H]1CC=C(C(O)C2C=CC3C(=O)N(C4CCCCC4)C(=O)C3N2Nc2ccc(OC)cc2)CC1 (some centres undefined)", "assigned.class": "True"}
{"molecule": "O=C(NCc1ccccc1)[C@]1(Cc2ccccc2)N=C(c2ccc(OCCCO)cc2)O[C@@H]1c1ccccc1", "assigned.class": "False"}
{"molecule": "O=[N+]([O-])c1ccc(C[n+]2ccc(-c3ccc(CO)cc3)cc2)o1", "assigned.class": "True"}
{"molecule": "O=C1c2ccccc2[C@](Cc2ccccc2I)(C(=O)NCC(F)(F)F)[C@H](c2ccc(CO)cc2)N1Cc1ccccc1", "assigned.class": "True"}
{"molecule": "O=C1c2ccccc2[C@](Cc2ccccc2I)(C(=O)NC2CC2)[C@H](c2ccc(CO)cc2)N1Cc1ccccc1Cl", "assigned.class": "False"}
{"molecule": "COC(=O)C(CC#Cc1ccc2c(c1)[C@]1(C(=O)N2)[C@H](c2ccccc2OCCO)N2[C@H](c3ccccc3)[C@H](c3ccccc3)OC(=O)[C@H]2[C@@H]1C(=O)Nc1nc2ccccc2s1)C(=O)OC", "assigned.class": "True"}
{"molecule": "CO[C@H]1O[C@H](CO)[C@@H](OC(=O)c2ccc(Br)cc2)[C@@H]2OC(=O)[C@H](Cc3cccc(Br)c3)C/C=C/C[C@@H](Cc3cccc(Br)c3)C(=O)O[C@@H]12", "assigned.class": "True"}
{"molecule": "COc1ccc(CCNC(=O)[C@@H]2c3ccccc3C(=O)N(Cc3ccccc3C(F)(F)F)[C@H]2c2ccc(CO)cc2)cc1", "assigned.class": "False"}
{"molecule": "COc1ccc([Si](C)(C)[C@H]2[C@H](CCO)O[C@@]3(C(=O)N(Cc4cccc(N5CCOC5=O)c4)c4ccccc43)[C@@H]2C)cc1", "assigned.class": "False"}
{"molecule": "CN1C(=O)C2C=CC(C(O)c3ccc(F)cc3)N(N3CCCCC3)C2C1=O (centres undefined)", "assigned.class": "False"}
{"molecule": "C=CCN1C(=O)[C@@]2(O[C@@H](CCO)[C@H]([Si](C)(C)c3ccc(OC)cc3)[C@H]2C)c2cc(NC(=O)[C@H](C)O)ccc21", "assigned.class": "False"}
